Property: growth; scope: individual molecules
Tested on: ACHN renal
Assay: NCI-60 one-dose screen, 48 h (100 = growth as untreated, 0 = no growth, -100 = all killed)
Conditions: 10 µM unless noted
Experimental: Growth inhibition of the ACHN human tumor cell line is measured as a screen for anti-cancer activity. Cells are grown in 96 well plates and exposed to the test compound for 48 hours. Compounds are tested at a single concentration, which is 10^-5 M for most compounds. The reported endpoint is percent growth (GI% or GIPRCNT), where numbers from 0 - 100% represent growth inhibition, and numbers from -100% - 0 represent cell death. For example, a value of 40 represents 60% growth inhibition. […]
About 83,000 compounds went through this panel and 20% of them were active in at least one assay; those are over-represented in the sample as a whole.
Could you give me the number in %? Just the number is fine.

Guide cases for growth, answers given:
{"molecule": "CCOC(=O)c1c(Nc2ccccc2)nn2c(-c3ccc(Br)cc3)ccnc12", "measurement.units": "%", "growth": 34}
{"molecule": "C#C[C@]1(O)CC[C@H]2[C@@H]3CC=C4c5sc(Nc6cccc(C)n6)nc5CC[C@]4(C)[C@H]3CC[C@@]21C", "measurement.units": "%", "growth": 33.1}
{"molecule": "Cc1ccc(/C=C/CC(=O)Nc2ccc(C(=O)Nc3ccc(F)cc3N)nc2)cn1", "measurement.units": "%", "growth": 31.6}

Recorded growth of O=C(COc1ccc(C2SCC(=O)N2c2ccc(F)cc2)cc1)c1ccccc1 (centres undefined) , please.
95.6

Another molecule: C=CCn1c(SCC(=O)Nc2cccc(C(=O)/C=C/c3ccccc3Cl)c2)nc2ccccc2c1=O
96.3

Next molecule: O=C1Nc2ccc(Cl)cc2/C1=C/c1ccc(OCc2ccc(Br)cc2F)cc1
103

Would you mind doing COc1ccc(CN2C(=O)/C(=C/c3nc(CO)cs3)SC2=S)cc1 as well?
99.6

Entry CCOC(=O)/C(F)=C/C1CC1C1CCCCC1 (centres undefined) please
105

Would you kindly repeat that for CCc1ccc(NC(=O)N[C@@H](Cc2cccc(F)c2)C(=O)N[C@@H]2C(=O)N3CCC[C@H]3C(=O)N3CCCC[C@H]3C(=O)N[C@@H](C)C(=O)N3C[C@H](C)C[C@H]3C(=O)O[C@H]2C)c(F)c1 ?
27.4

---

test system: EKVX NSCLC; experiment: NCI-60 one-dose screen, 48 h (100 = growth as untreated, 0 = no growth, -100 = all killed); conditions: 10 µM unless noted
About 83,000 compounds went through this panel and 20% of them were active in at least one assay; those are over-represented in the sample as a whole.
Label Satisfied for high-side growth (at or above 70%) and Not satisfied for low-side growth (below it).

Worked examples follow.
{"compound": "CCOC(=O)CC(=O)CSC1=NC2C(NN1)N(C)C(=O)N2C (configuration not stated)", "label.class": "Not satisfied"}
{"compound": "COc1cc2oc(-c3cccc(NC(=O)c4cc(NC(=O)[C@H](C)N)ccc4Cl)c3)cc(=O)c2c(OC)c1OC", "label.class": "Satisfied"}
{"compound": "CCN(CC)CCN1C(=O)c2c(c3c4cccnc4[nH]c3c3ccc4ccccc4c23)C1=O", "label.class": "Satisfied"}

Given the entry CN1CCN(Cc2ccc(NC(=O)c3cncc(C#Cc4cnc5ccc(O[C@H]6CCOC6)nn45)c3)cc2C(F)(F)F)CC1 , answer whether its growth meets or surpasses 70%.
Not satisfied

Try this compound too: O=C1c2c(c3c4cc(O)ccc4oc3c3[nH]c4ccccc4c23)C(=O)N1O
Not satisfied

Let us now turn to C/C(=N\NC(=O)CSc1nc2sc3c(c2c(=O)n1-c1ccccc1)CCC(C)C3)c1ccc(Cl)cc1 (configuration not stated)
Not satisfied

Same thing, different compound: CCNC(=O)Oc1ccc(/C(=C(/C)c2ccc(Cl)cc2)c2ccc(OCCN3CCCC3)cc2)cc1
Satisfied

Same lookup for CN1CCN(Cc2ccc(NC(=O)c3cncc(C#Cc4[nH]nc5ncncc45)c3)cc2C(F)(F)F)CC1 , please.
Satisfied

Record: Cc1nc(-c2cc3ccccc3c(N3CCN(C)CC3)n2)cs1
Satisfied

---

test system: HT29 colon; experiment: NCI-60 one-dose screen, 48 h; details: 10 µM unless noted
The panel holds about 83,000 compounds, 20% with a hit somewhere; the sample as a whole holds those more often. Activity calls are given as the source filed them. The calls were made as follows: active = growth percent below 10; inactive = the rest.
Answer with one of the outcomes active, inactive

{"compound": "C=CCn1c(SCC(=O)Nc2cccc(C(=O)/C=C/c3ccc(Cl)cc3)c2)nc2ccccc2c1=O", "label.class": "inactive"}

Outcome logged for CSc1nccc(-c2c(-c3ccc(F)c(OCc4ccc(F)cc4)c3)nc3sccn23)n1 in this assay:
inactive

Input COc1ccc2c(c1)c(-c1nnc(N)nc1-c1cn(C)c3ccccc13)cn2C
inactive

Repeat for the following compound: Cc1nc(-c2cc3ccccc3c(N3CCN(C)CC3)n2)cs1
inactive

Repeat with Cc1cccc(NC(c2cc3cccc4ccc5cccc2c5c43)c2nnnn2C(C)(C)C)c1C (stereo not given)
inactive

Do the same for Fc1ccccc1/C=C(/C1=NCCN1)n1cnc2ccccc21 please
inactive

Also CC[C@@](C)(NC(=O)C(C)(C)NC(=O)[C@@H](NC(=O)[C@@H]1CCCN1C(=O)C(C)(C)NC(=O)[C@H](CC(C)C)NC(=O)CNC(=O)C(C)(C)NC(=O)[C@@H](NC(=O)C(C)(C)NC(=O)[C@H](CCC(N)=O)NC(=O)[C@H](C)NC(=O)C(C)(C)NC(=O)[C@H](C)NC(=O)C(C)(C)NC(=O)[C@H](C)NC(=O)C(C)(C)NC(C)=O)C(C)C)C(C)C)C(=O)N[C@@H](CCC(N)=O)C(=O)N[C@@H](CCC(N)=O)C(=O)N[C@H](CO)CC1CCCCC1 ?
inactive

Note, next up: CNC(=O)c1cc(Oc2ccc3nc(NC(=O)c4cccc(C(F)(F)F)c4)sc3c2)ccn1
inactive

COc1ccc(OC)c(NC2=C(Cl)C(=O)C(C)=C(C)C2=O)c1 ?
inactive

Now the compound CC(c1ccccc1)N1C(=O)/C(=C/c2csc(C#N)n2)SC1=S (stereo not given)
inactive

---

test system: OVCAR-5 ovarian; assay: NCI-60 one-dose screen, 48 h (100 = growth as untreated, 0 = no growth, -100 = all killed); conditions: 10 µM unless noted
About 83,000 compounds went through this panel and 20% of them were active in at least one assay; those are over-represented in the sample as a whole. Activity calls are given as the source filed them. Rule for the calls: active = growth percent below 10; inactive = the rest.
Entries and their growth values follow.

{"smi": "O=C(Nc1cc(Cl)cc(Cl)c1)Nc1ccc2oc(=O)ccc2c1", "readout.value": "36.4% (inactive)"}
{"smi": "C=CCn1c(SCC(=O)Nc2cccc(C(=O)/C=C/c3cccc([N+](=O)[O-])c3)c2)nc2ccccc2c1=O", "readout.value": "92.5% (inactive)"}
{"smi": "Clc1ccccc1/C=C/c1nn2c(-c3ccncc3)nnc2s1", "readout.value": "109% (inactive)"}

Please look up its growth: O=[N+]([O-])c1ccc(-c2nnc(SCc3ccc(O)c4ncccc34)n2-c2ccccc2)cc1
73.9% (inactive)

Similarly, CCCCOc1ccc(S(=O)(=O)N2CCN(c3nccc(N4CCOCC4)n3)CC2)cc1 ?
56.2% (inactive)

---

Overview of recorded growth for various molecules
tested on: A549/ATCC NSCLC; assay: NCI-60 one-dose screen, 48 h (100 = growth as untreated, 0 = no growth, -100 = all killed); conditions: 10 µM unless noted
Compounds without any hit were thinned out: in the full panel of roughly 83,000, 20% have a hit.
The reply should be a number in %, with the unit left off.

Example results:
{"molecule": "O=[N+]([O-])c1ccc(-c2nnc(SCc3ccc(O)c4ncccc34)o2)cc1", "readout.value": 25.8}
{"molecule": "Cc1cc(F)cc(NS(=O)(=O)c2ccc(-c3cnc(C4CC4)o3)cc2)c1", "readout.value": 27.8}
{"molecule": "CCN1C(=O)N(CC)C2SC(N/N=C/c3ccccc3)=NC21 (centres undefined)", "readout.value": 28.7}
{"molecule": "Cn1cc(-c2nn3cc(-c4ccncc4)nc3s2)c2cc(Cl)ccc21", "readout.value": 64}
{"molecule": "O=S(=O)(Nc1cc(Cl)c(F)c(Cl)c1)c1ccc(-c2cnc(C3CC3)o2)cc1", "readout.value": 41.5}

I have this molecule here, Cc1ccc(NC(=O)c2ccc(CN3CCN(C)CC3)c(C(F)(F)F)c2)cc1Oc1ccc(-c2[nH]nc3ncnc(N)c23)cc1 , and I need its recorded growth.
78.6

Next molecule up: COC(=O)c1nc(-c2ccc(C)cc2)oc1S(=O)(=O)N1CCN(c2oc(-c3ccccc3)nc2C#N)CC1
102

Let us now turn to O=C1CC2(CCOCC2)Oc2ncccc21
102

And the next one, COc1cc2cc(Oc3ccc(NC(=O)c4cccc(C(F)(F)F)c4)cc3)c(C)nc2cc1OCCN(C)C ?
89.2

Then what about the molecule Cc1ccccc1/C=C/c1nn2c(-c3ccoc3C)nnc2s1 ?
90
